Assay: Plasma and brain concentrations in rats after an oral dose
Assay type: in vivo
Details: rat, brain/plasma; fasted male Sprague-Dawley rats, 10 μmol/kg PO, two hours after dosing
Method: The compounds were prepared as a solution in a 10% DMSO/poly(ethylene glycol)-400 (v/v). Blood and brain samples were obtained from each animal two hours after dosing. Rat brain tissue was homogenized with two parts water (by weight). […] Plasma and tissue concentrations were determined by HPLC-MS/MS on an API2000 with Turbo Ion Spray interface, with MRM detection in the positive ionization mode. […]
Rule: Kp at 2 h of 3 or more gives Criterion met; anything lower gives Criterion not met.

| Molecule | Answer Label |
| --- | --- |
| Cc1nc(Nc2cccc3c2CC(O)CC3)oc1-c1ccc(S(F)(F)(F)(F)F)cc1 (stereo not drawn) | Criterion not met |
| O[C@@H]1CCc2cccc(Nc3nc(C(F)F)c(-c4ccc(C(F)(F)F)cc4)o3)c2C1 | Criterion met |
| CCc1nc(Nc2cccc3c2C[C@H](O)CC3)oc1-c1ccc(C(F)(F)F)cc1 | Criterion not met |
| Cc1nc(Nc2cccc3c2CC(O)CO3)oc1-c1ccc(C(F)(F)F)cc1 (stereo not drawn) | Criterion not met |
| C=C(C)[C@H]1CC=C(c2oc(Nc3cccc4c3CC(O)CC4)nc2C)CC1 (stereo partly drawn) | Criterion not met |
| Cc1nc(Nc2cccc3c2CC(O)CC3)oc1-c1ccc(C(F)(F)F)o1 (stereo not drawn) | Criterion not met |

---

# Lookup of reported concentration at 2 h keyed by entry
Experiment: Plasma and brain concentrations in rats after an oral dose
Assay type: in vivo
Conditions: rat, plasma; fasted male Sprague-Dawley rats, 10 μmol/kg PO, two hours after dosing; read-out: [Plasma]
Assay Endpoint: concentration at 2 h (ng/mL)

| Compound | Unit Abbrev | Value Reported |
| --- | --- | --- |
| O[C@@H]1CCc2cccc(Nc3nc(C(F)F)c(-c4ccc(C(F)(F)F)cc4)o3)c2C1 [Compound 53] | ng/mL | 270 |
| CCc1nc(Nc2cccc3c2C[C@H](O)CC3)oc1-c1ccc(C(F)(F)F)cc1 [Compound 43] | ng/mL | 140 |
| Cc1nc(Nc2cccc3c2CC(O)CO3)oc1-c1ccc(C(F)(F)F)cc1 (stereo not drawn) [Compound 51] | ng/mL | 300 |
| C=C(C)[C@H]1CC=C(c2oc(Nc3cccc4c3CC(O)CC4)nc2C)CC1 (stereo partly drawn) [Compound 32] | ng/mL | 9 |
| Cc1nc(Nc2cccc3c2CC(O)CC3)oc1-c1ccc(C(F)(F)F)o1 (stereo not drawn) [Compound 31] | ng/mL | 40 |
| Cc1nc(Nc2cccc3c2CC(O)CC3)oc1-c1ccc(S(F)(F)(F)(F)F)cc1 (stereo not drawn) [Compound 40] | ng/mL | 110 |

---

Test: Plasma and brain concentrations in rats after an oral dose
Assay type: in vivo
Settings: rat, brain; fasted male Sprague-Dawley rats, 10 μmol/kg PO, two hours after dosing; read-out: [Brain]
Define the label as YES when concentration at 2 h is strictly less than 50 ng/g and as NO in all remaining cases.

| Compound | Answer Label |
| --- | --- |
| Cc1nc(Nc2cccc3c2CC(O)CO3)oc1-c1ccc(C(F)(F)F)cc1 (stereo not drawn) | NO |
| O[C@@H]1CCc2cccc(Nc3nc(C(F)F)c(-c4ccc(C(F)(F)F)cc4)o3)c2C1 | NO |
| Cc1nc(Nc2cccc3c2CC(O)CC3)oc1-c1ccc(S(F)(F)(F)(F)F)cc1 (stereo not drawn) | NO |
| CCc1nc(Nc2cccc3c2C[C@H](O)CC3)oc1-c1ccc(C(F)(F)F)cc1 | NO |
| C=C(C)[C@H]1CC=C(c2oc(Nc3cccc4c3CC(O)CC4)nc2C)CC1 (stereo partly drawn) | YES |

---

Molecular target: human TRPV1 receptor (Homo sapiens, UniProt Q8NER1)
Sequence (Q8NER1 whole entry): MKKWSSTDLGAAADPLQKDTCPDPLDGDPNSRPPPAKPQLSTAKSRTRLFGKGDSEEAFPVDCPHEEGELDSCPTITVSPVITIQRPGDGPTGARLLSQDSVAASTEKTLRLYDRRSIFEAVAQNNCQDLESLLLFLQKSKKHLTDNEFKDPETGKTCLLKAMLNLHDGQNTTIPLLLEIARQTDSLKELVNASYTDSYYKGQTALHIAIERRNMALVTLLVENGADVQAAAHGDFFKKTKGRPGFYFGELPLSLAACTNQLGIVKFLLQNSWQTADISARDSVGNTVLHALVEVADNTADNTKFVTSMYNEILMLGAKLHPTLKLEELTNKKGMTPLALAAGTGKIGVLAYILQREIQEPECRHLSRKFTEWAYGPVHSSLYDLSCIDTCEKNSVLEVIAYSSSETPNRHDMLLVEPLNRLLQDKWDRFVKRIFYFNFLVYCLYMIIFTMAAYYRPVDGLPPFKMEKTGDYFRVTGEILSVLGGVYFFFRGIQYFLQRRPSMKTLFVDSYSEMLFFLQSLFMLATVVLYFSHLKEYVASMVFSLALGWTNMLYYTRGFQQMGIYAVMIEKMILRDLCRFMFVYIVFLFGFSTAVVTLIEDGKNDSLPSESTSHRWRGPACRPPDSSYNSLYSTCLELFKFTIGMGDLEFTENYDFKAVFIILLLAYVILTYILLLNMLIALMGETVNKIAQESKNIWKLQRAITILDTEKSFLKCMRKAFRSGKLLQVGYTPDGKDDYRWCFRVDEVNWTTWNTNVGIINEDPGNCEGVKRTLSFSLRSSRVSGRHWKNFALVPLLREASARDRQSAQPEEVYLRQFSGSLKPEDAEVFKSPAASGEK
Test: Ca2+ influx assay (FLIPR, Fluo-4 AM) with capsaicin challenge in 1321N1 cells expressing recombinant TRPV1
Conditions: inhibition of 0.05 μM capsaicin response, hTRPV1 in 1321N1 human astrocytoma cells
pIC50: −log10 of the molar value.
Listed below: pIC50 values for each entry.

| Compound | pIC50 |
| --- | --- |
| Cc1nc(Nc2cccc3c2CC(O)CC3)oc1-c1ccc(C(F)(F)F)c(F)c1F (centres unmarked) | 7.21 |
| O[C@@H]1CCc2cccc(Nc3nc(C(F)F)c(-c4ccc(C(F)(F)F)cc4)o3)c2C1 | 7.42 |
| Cc1nc(Nc2cccc3c2CC(O)CO3)oc1-c1ccc(C(F)(F)F)cc1 (centres unmarked) | 6.21 |
| Cc1nc(Nc2cccc3c2CC(O)CC3)oc1-c1ccc(C#N)cc1 (centres unmarked) | 7.44 |
| Cc1nc(Nc2cccc3c2CC(O)CC3)oc1-c1ccc(C(F)(F)F)o1 (centres unmarked) | 6.15 |
| Cc1nc(Nc2cccc3c2CC(O)CC3)oc1-c1ccc(OC(F)(F)F)cc1 (centres unmarked) | 6.74 |
| Cc1nc(Nc2cccc3c2CC(O)CC3)oc1-c1ccc(C(F)(F)F)cc1F (centres unmarked) | 7.37 |
| Cc1nc(Nc2cccc3c2CC(O)CC3)oc1-c1ccc(S(F)(F)(F)(F)F)cc1 (centres unmarked) | 7.28 |

---

Assay: Plasma and brain concentrations in rats after an oral dose
Type: in vivo
Conditions: rat, brain/plasma; fasted male Sprague-Dawley rats, 30 μmol/kg oral, two hours after dosing
Label 0 if Kp at 2 h falls below 3; label 1 in every other case.

| Compound | Answer Label |
| --- | --- |
| Cc1nc(Nc2cccc3c2CC(O)CC3)oc1-c1ccc(Cl)cc1 (stereo not shown) [Compound 13] | 1 |
| OC1CCc2cccc(Nc3ncc(-c4ccc(C(F)(F)F)cc4)o3)c2C1 (stereo not shown) [Compound A, reference compound] | 0 |
| Cc1nc(Nc2cccc3c2CC(O)CC3)oc1-c1ccc(C(F)(F)F)cc1 (stereo not shown) [Compound 12] | 1 |
| Cc1nc(Nc2cccc3c2CC(O)CC3)oc1-c1ccc(C(F)(F)F)c(F)c1F (stereo not shown) [Compound 6] | 0 |
| Cc1nc(Nc2cccc3c2CC(O)CC3)oc1-c1ccc(OC(F)(F)F)cc1 (stereo not shown) [Compound 9] | 1 |
| Cc1nc(Nc2cccc3c2CC(O)CC3)oc1-c1ccc(C#N)cc1 (stereo not shown) [Compound 15] | 0 |

---

Experiment: Plasma and brain concentrations in rats after an oral dose
Assay type: in vivo
Conditions: rat, brain; fasted male Sprague-Dawley rats, 30 μmol/kg oral, two hours after dosing; read-out: [Brain]
Procedure: The compounds were prepared as a solution in a 10% DMSO/poly(ethylene glycol)-400 (v/v). Blood and brain samples were obtained from each animal two hours after dosing. Rat brain tissue was homogenized with two parts water (by weight). […] Plasma and tissue concentrations were determined by HPLC-MS/MS on an API2000 with Turbo Ion Spray interface, with MRM detection in the positive ionization mode. […]
API: label(entry) gives Satisfied if the entry's concentration at 2 h is strictly smaller than 700 ng/g; on equality or larger values it gives Not satisfied.

| Compound | Answer Label |
| --- | --- |
| Cc1nc(Nc2cccc3c2CC(O)CC3)oc1-c1ccc(C(F)(F)F)cc1F (stereo not shown) | Satisfied |
| Cc1nc(Nc2cccc3c2CC(O)CC3)oc1-c1ccc(C(F)(F)F)cc1 (stereo not shown) | Not satisfied |
| Cc1nc(Nc2cccc3c2CC(O)CC3)oc1-c1ccc(OC(F)(F)F)cc1 (stereo not shown) | Not satisfied |
| Cc1nc(Nc2cccc3c2CC(O)CC3)oc1-c1ccc(Cl)cc1 (stereo not shown) | Satisfied |
| Cc1nc(Nc2cccc3c2CC(O)CC3)oc1-c1ccc(C#N)cc1 (stereo not shown) | Satisfied |
| OC1CCc2cccc(Nc3ncc(-c4ccc(C(F)(F)F)cc4)o3)c2C1 (stereo not shown) [Compound A, reference compound] | Satisfied |
| Cc1nc(Nc2cccc3c2CC(O)CC3)oc1-c1ccc(C(F)(F)F)c(F)c1F (stereo not shown) | Satisfied |

---

Assay: Plasma and brain concentrations in rats after an oral dose
Assay type: in vivo
Conditions: rat, plasma; fasted male Sprague-Dawley rats, 30 μmol/kg oral, two hours after dosing; read-out: [Plasma]

| Compound | concentration at 2 h, ng/mL |
| --- | --- |
| Cc1nc(Nc2cccc3c2CC(O)CC3)oc1-c1ccc(Cl)cc1 (stereo not shown) | 93 |
| Cc1nc(Nc2cccc3c2CC(O)CC3)oc1-c1ccc(C(F)(F)F)c(F)c1F (stereo not shown) | 130 |
| Cc1nc(Nc2cccc3c2CC(O)CC3)oc1-c1ccc(C(F)(F)F)cc1 (stereo not shown) | 490 |
| Cc1nc(Nc2cccc3c2CC(O)CC3)oc1-c1ccc(C(F)(F)F)cc1F (stereo not shown) | 210 |
| OC1CCc2cccc(Nc3ncc(-c4ccc(C(F)(F)F)cc4)o3)c2C1 (stereo not shown) [Compound A, reference compound] | 0 |
| Cc1nc(Nc2cccc3c2CC(O)CC3)oc1-c1ccc(OC(F)(F)F)cc1 (stereo not shown) | 510 |
| Cc1nc(Nc2cccc3c2CC(O)CC3)oc1-c1ccc(C#N)cc1 (stereo not shown) | 250 |
